System: Liver microsomes
# strict inequality: IC50 < 6 µM yields criterion met, everything else yields criterion not met

Query: Please check: IC50 for `COc1ccc(N2N=C(C)CC2=O)cc1` , strictly under 6 µM or not?
Result: criterion not met

Query: Same lookup for `CC1=NN(c2ccc(OCCCCCCO[N+](=O)[O-])cc2)C(=O)C1` , please.
Result: criterion met

Query: Same lookup for `CC1=NN(c2ccc(OCc3no[n+]([O-])c3C#N)cc2)C(=O)C1` , please.
Result: criterion met

Query: Same lookup for CC1=NN(c2ccc(OCCCCC(CO[N+](=O)[O-])O[N+](=O)[O-])cc2)C(=O)C1 (stereo not drawn) , please.
Result: criterion met

Query: Same lookup for `CC1=NN(c2ccc(OCCCO[N+](=O)[O-])cc2)C(=O)C1` , please.
Result: criterion met

Query: Same lookup for `CC1=NN(c2ccc(OCc3no[n+]([O-])c3C(N)=O)cc2)C(=O)C1` , please.
Result: criterion not met

Query: Same lookup for `CC1=NN(c2ccccc2)C(=O)C1` , please.
Result: criterion not met

Query: Same lookup for `CC1=NN(c2ccc(OCCCOc3no[n+]([O-])c3S(=O)(=O)c3ccccc3)cc2)C(=O)C1` , please.
Result: criterion met
